Molecular target: Peroxisome proliferator-activated receptor delta (Homo sapiens)
Sequence (Q03181 whole entry): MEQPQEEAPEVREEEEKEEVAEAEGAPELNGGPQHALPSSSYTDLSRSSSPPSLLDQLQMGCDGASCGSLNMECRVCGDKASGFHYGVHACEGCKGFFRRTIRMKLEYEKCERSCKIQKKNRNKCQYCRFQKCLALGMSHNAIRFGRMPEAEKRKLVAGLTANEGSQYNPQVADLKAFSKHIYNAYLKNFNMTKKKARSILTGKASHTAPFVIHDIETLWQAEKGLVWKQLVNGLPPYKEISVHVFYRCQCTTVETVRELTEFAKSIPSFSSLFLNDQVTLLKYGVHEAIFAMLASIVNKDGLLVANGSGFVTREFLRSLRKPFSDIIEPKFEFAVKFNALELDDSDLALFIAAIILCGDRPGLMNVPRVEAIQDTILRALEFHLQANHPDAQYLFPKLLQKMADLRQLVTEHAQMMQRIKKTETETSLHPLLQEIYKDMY
Experiment: Antagonist activity at PPARdelta LBD (unknown origin) assessed as increase in recruitment of SMRT ID2 corepressor peptide by TR-FRET assay
metricName: EC50 (µM)
// note: answer is a bare numeric in µM

CNC(=O)[C@H]1[Se][C@@H](n2cnc3c(NCc4cccc(I)c4)nc(Cl)nc32)[C@H](O)[C@@H]1O    7.3

Moving on to the next compound.
query: Dear colleague, I am looking for the recorded EC50 of the following compound: `CNC(=O)[C@H]1S[C@@H](n2cnc3c(NCc4cccc(I)c4)nc(Cl)nc32)[C@H](O)[C@@H]1O`
result: 16.7

====

Target: Peroxisome proliferator-activated receptor alpha (Homo sapiens)
Sequence (whole entry): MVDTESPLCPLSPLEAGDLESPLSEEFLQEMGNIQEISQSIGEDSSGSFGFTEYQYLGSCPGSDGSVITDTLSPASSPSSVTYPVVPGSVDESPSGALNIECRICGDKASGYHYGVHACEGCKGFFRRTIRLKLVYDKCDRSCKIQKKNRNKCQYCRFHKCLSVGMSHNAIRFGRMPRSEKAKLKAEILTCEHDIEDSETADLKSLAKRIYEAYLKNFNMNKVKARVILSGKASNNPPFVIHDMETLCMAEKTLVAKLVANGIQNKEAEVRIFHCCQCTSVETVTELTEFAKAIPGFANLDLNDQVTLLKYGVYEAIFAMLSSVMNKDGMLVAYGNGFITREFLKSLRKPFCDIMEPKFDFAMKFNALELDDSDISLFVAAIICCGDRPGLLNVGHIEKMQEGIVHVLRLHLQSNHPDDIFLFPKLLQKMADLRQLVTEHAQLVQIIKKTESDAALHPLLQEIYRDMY
Experiment: Binding affinity to GST-tagged human PPARalpha LBD up to 30 uM incubated for 2 to 6 hrs by TR-FRET assay
Active and inactive are the calls of the source. The calls are words filed in the database; no cut-off is given here.
metricName: Activity

CNC(=O)[C@H]1O[C@@H](n2cnc3c(NCc4cccc(I)c4)ncnc32)[C@H](O)[C@@H]1O    inactive
CNC(=O)[C@H]1[Se][C@@H](n2cnc3c(NCc4cccc(Br)c4)nc(Cl)nc32)[C@H](O)[C@@H]1O    inactive
CNC(=O)[C@H]1[Se][C@@H](n2cnc3c(NCc4cccc(Br)c4)ncnc32)[C@H](O)[C@@H]1O    inactive
CNC(=O)[C@H]1[Se][C@@H](n2cnc3c(NCc4ccccc4Cl)ncnc32)[C@H](O)[C@@H]1O    inactive
CNC(=O)[C@H]1O[C@@H](n2cnc3c(NCc4cccc(I)c4)nc(Cl)nc32)[C@H](O)[C@@H]1O [NAMODENOSON]    inactive

Now examine the next entry.
query: Fill blank: measured Activity of the compound `CNC(=O)[C@H]1[Se][C@@H](n2cnc3c(NCc4cccc5ccccc45)ncnc32)[C@H](O)[C@@H]1O` is ____.
result: inactive

====

# pEC50 per entry
molecular target: Peroxisome proliferator-activated receptor delta (Homo sapiens); experiment: Antagonist at PPARdelta LBD (unknown origin) assessed as […] in recruitment of coactivator peptide C33 cotreated with PPARdelta agonist GW501516 by TR-FRET assay
Would you please state pEC50, meaning minus log10 of the concentration in mol/L, as a bare number?

See these solved cases before continuing.
CNC(=O)[C@H]1O[C@@H](n2cnc3c(NCc4cccc(I)c4)nc(Cl)nc32)[C@H](O)[C@@H]1O [NAMODENOSON]    4.53
CNC(=O)[C@H]1S[C@@H](n2cnc3c(NCc4cccc(I)c4)nc(Cl)nc32)[C@H](O)[C@@H]1O    4.97

Here's the next entry for you.
query: Item under review: `CNC(=O)[C@H]1[Se][C@@H](n2cnc3c(NCc4cccc(I)c4)nc(Cl)nc32)[C@H](O)[C@@H]1O` . Reported pEC50?
result: 5.28

====

EC50 by entry:
target: Peroxisome proliferator-activated receptor delta (Homo sapiens, UniProt Q03181); experiment: Competitive binding affinity to GST-tagged human PPARdelta LBD incubated for 1 to 6 hrs by TR-FRET assay

Answered cases to consult:
CNC(=O)[C@H]1S[C@@H](n2cnc3c(NCc4cccc(I)c4)nc(Cl)nc32)[C@H](O)[C@@H]1O    41.1 nM
CNC(=O)[C@H]1[Se][C@@H](n2cnc3c(NCc4cccc(I)c4)nc(Cl)nc32)[C@H](O)[C@@H]1O    14.4 nM

query: // lookup EC50 for `CNC(=O)[C@H]1O[C@@H](n2cnc3c(NCc4cccc(I)c4)nc(Cl)nc32)[C@H](O)[C@@H]1O`
result: 191 nM

====

Target: Peroxisome proliferator-activated receptor gamma (Homo sapiens, UniProt P37231)
Sequence (P37231 whole entry): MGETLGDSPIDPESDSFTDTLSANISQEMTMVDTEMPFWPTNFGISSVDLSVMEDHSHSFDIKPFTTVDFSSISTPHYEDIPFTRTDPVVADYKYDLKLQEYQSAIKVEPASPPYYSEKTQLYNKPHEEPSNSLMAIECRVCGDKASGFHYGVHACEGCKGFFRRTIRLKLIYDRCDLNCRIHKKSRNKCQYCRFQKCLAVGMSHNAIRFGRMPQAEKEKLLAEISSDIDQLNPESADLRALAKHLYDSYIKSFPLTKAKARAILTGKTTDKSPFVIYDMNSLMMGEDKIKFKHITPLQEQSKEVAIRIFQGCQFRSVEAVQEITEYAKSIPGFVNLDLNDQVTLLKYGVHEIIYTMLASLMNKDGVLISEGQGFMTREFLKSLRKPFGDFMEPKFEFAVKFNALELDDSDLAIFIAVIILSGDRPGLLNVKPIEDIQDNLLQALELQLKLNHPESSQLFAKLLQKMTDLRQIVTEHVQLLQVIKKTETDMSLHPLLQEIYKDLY
Test: Competitive binding affinity to GST-tagged human PPARgamma LBD incubated for 1 to 6 hrs by TR-FRET assay
As shown below, each of these molecules has a reported EC50 value.
Please respond with the number in µM and leave the unit unwritten.

Use the examples below as a reference point.
CNC(=O)[C@H]1[Se][C@@H](n2cnc3c(NCc4cccc(I)c4)nc(Cl)nc32)[C@H](O)[C@@H]1O    5.31
CNC(=O)[C@H]1S[C@@H](n2cnc3c(NCc4cccc(I)c4)nc(Cl)nc32)[C@H](O)[C@@H]1O    4.64

Okay, next one:
query: Please look up its EC50: `CNC(=O)[C@H]1O[C@@H](n2cnc3c(NCc4cccc(I)c4)nc(Cl)nc32)[C@H](O)[C@@H]1O`
result: 2.94

====

target: Peroxisome proliferator-activated receptor gamma (Homo sapiens); test: Competitive binding affinity to GST-tagged human PPARgamma LBD at 30 uM incubated for 1 to 6 hrs by TR-FRET assay relative to control
Active and inactive are the calls of the source. The calls are words filed in the database; no cut-off is given here.
metricName: Activity

CNC(=O)[C@H]1[Se][C@@H](n2cnc3c(NCc4cccc(I)c4)nc(Cl)nc32)[C@H](O)[C@@H]1O    > 50%
CNC(=O)[C@H]1[Se][C@@H](n2cnc3c(NCc4cccc(Br)c4)nc(Cl)nc32)[C@H](O)[C@@H]1O    Active
CNC(=O)[C@H]1[Se][C@@H](n2cnc3c(NCc4cccc(Cl)c4)nc(Cl)nc32)[C@H](O)[C@@H]1O    Active
CNC(=O)[C@H]1[Se][C@@H](n2cnc3c(NCc4cccc(I)c4)ncnc32)[C@H](O)[C@@H]1O    Active

query: Given the entry `CNC(=O)[C@H]1[Se][C@@H](n2cnc3c(NCc4cccc5ccccc45)ncnc32)[C@H](O)[C@@H]1O` , what Activity was observed with Peroxisome proliferator-activated receptor gamma (Homo sapiens)?
result: Active
